Reference source for all entries: PubChem BioAssay (NCI)

tested on: MDA-MB-435
Give one outcome, nothing more. List: T (active), F (inactive)

Task: Each molecule tested received a call. Report the one for Cc1ccc(NCCN(C)C)c2c(=O)c3ccccc3sc12 .
Output: F

Task: Each molecule tested received a call. Report the one for N#Cc1c(N)nc(NCc2ccccc2)c(C#N)c1-c1ccc(Cl)cc1Cl .
Output: F

Task: Each molecule tested received a call. Report the one for Nc1ccccc1C#C/C=C\C#Cc1c(F)c(F)c(F)c(F)c1F .
Output: F

In the following, a different molecule is considered.
Task: Each molecule tested received a call. Report the one for NC(=Nc1ccc(N)cc1)C(N)=Nc1ccc(N)cc1 .
Output: F
